Procedure text: Degradation of prodrug in rat plasma (release of dexmedetomidine, HPLC)
Format: in vitro ADME
Measurement conditions: 37° C., 2 min
Structures can show the parent of a compound that is named as a salt.
Property name: Degradation rate of prodrug % (%)

> print(dat)
                                   molecule  experimental.result
1  Cc1cccc([C@H](C)c2cn(COC(=O)OC(C)C)cn2)c1C [Compound 7-HCl]                   67
2  Cc1cccc([C@H](C)c2cn(C(=O)OCC(C)C)cn2)c1C [Compound 4-HCl]                   97
3  COC(=O)OCn1cnc([C@@H](C)c2cccc(C)c2C)c1 [Compound 13-HCl]                   67
4  CCCOC(=O)n1cnc([C@@H](C)c2cccc(C)c2C)c1 [Compound 11-HCl]                   74
5  CC(=O)OC(C)n1cnc([C@@H](C)c2cccc(C)c2C)c1 (stereo partly drawn) [Compound 17-HCl]                   19
6  Cc1cccc([C@H](C)c2cn(C(=O)OC(C)C)cn2)c1C [Compound 5-HCl]                   52
7  CCOC(=O)CCC(=O)OCn1cnc([C@@H](C)c2cccc(C)c2C)c1 [Compound 27-HCl]                   66
8  COC(=O)CCC(=O)OCn1cnc([C@@H](C)c2cccc(C)c2C)c1 [Compound 25-HCl]                   59
9  CC(=O)OCn1cnc([C@@H](C)c2cccc(C)c2C)c1 [Compound 1-HCl]                   95

---

Procedure text: Degradation of prodrug in rat plasma (release of dexmedetomidine, HPLC)
Format: in vitro ADME
Measurement conditions: 37° C., 60 min
Where a name gives a salt, the structure may show the parent alone.
Property name: Degradation rate of prodrug % (%)

> print(dat)
                                   compound  units  experimental.result
1  CCC(=O)OC(C)n1cnc([C@@H](C)c2cccc(C)c2C)c1 (stereo partly drawn) [Compound 18-HCl]      %                   75
2  CC(=O)OC(C)n1cnc([C@@H](C)c2cccc(C)c2C)c1 (stereo partly drawn) [Compound 17-HCl]      %                   67
3  COC(=O)COC(=O)OCn1cnc([C@@H](C)c2cccc(C)c2C)c1 [Compound 23-HCl]      %                   34
4  COC(=O)CCC(=O)OCn1cnc([C@@H](C)c2cccc(C)c2C)c1 [Compound 25-HCl]      %                   79
5  CCOC(=O)COC(=O)OCn1cnc([C@@H](C)c2cccc(C)c2C)c1 [Compound 24-HCl]      %                   41
6  Cc1cccc([C@H](C)c2cn(COP(=O)(O)O)cn2)c1C [Compound 26]      %                   56

---

Procedure text: Degradation of prodrug in rat plasma (release of dexmedetomidine, HPLC)
Type: in vitro ADME
Measurement conditions: 37° C., 1 min
Counter-ions that a name gives are not always drawn.
Property name: Degradation rate of prodrug % (%)

> print(dat)
                                    compound  experimental.result
 1  Cc1cccc([C@H](C)c2cn(C(=O)OC(C)C)cn2)c1C [Compound 5-HCl]                   47
 2  CC(=O)OC(C)n1cnc([C@@H](C)c2cccc(C)c2C)c1 (some centres unmarked) [Compound 17-HCl]                   16
 3  Cc1cccc([C@H](C)c2cn(COC(=O)OC3CC3)cn2)c1C [Compound 22-HCl]                   97
 4  Cc1cccc([C@H](C)c2cn(COC(=O)OC(C)C)cn2)c1C [Compound 7-HCl]                   46
 5  Cc1cccc([C@H](C)c2cn(COC(=O)OC3CCC3)cn2)c1C [Compound 14-HCl]                   80
 6  COC(=O)CCC(=O)OCn1cnc([C@@H](C)c2cccc(C)c2C)c1 [Compound 25-HCl]                   56
 7  CCCOC(=O)n1cnc([C@@H](C)c2cccc(C)c2C)c1 [Compound 11-HCl]                   57
 8  CC(=O)OCn1cnc([C@@H](C)c2cccc(C)c2C)c1 [Compound 1-HCl]                   68
 9  CCCC(=O)OCn1cnc([C@@H](C)c2cccc(C)c2C)c1 [Compound 8-HCl]                   89
10  Cc1cccc([C@H](C)c2cn(C(=O)OCC(C)C)cn2)c1C [Compound 4-HCl]                   86
11  CCC(=O)OCn1cnc([C@@H](C)c2cccc(C)c2C)c1 [Compound 10-HCl]                   82
